Data provenance is ChEMBL document CHEMBL5143685.

system: Pseudomonas aeruginosa; assay: Antibacterial activity against Pseudomonas aeruginosa ATCC 27853 assessed as inhibition of bacterial growth measured after 18 hrs by resazurin dye based analysis; format: functional
testReadout: MIC

COC(=O)[C@@]1(C)CCC[C@]2(C)c3cc(OC(=O)CCCNCCCCCCCCNCCCNC(=O)Oc4ccc5c(c4)[C@@]4(C)CCC[C@](C)(C(=O)OC)[C@@H]4CC5)ccc3CC[C@@H]12.O=C(O)C(F)(F)F.O=C(O)C(F)(F)F    > 28.7 µM
C[C@]1(C(=O)NCCCNCCCCCCCCN)CCC[C@]2(C)c3cc(O)ccc3CC[C@@H]12.O=C(O)C(F)(F)F.O=C(O)C(F)(F)F    > 46.7 µM
CCCCCNC(=O)[C@@]1(C)CCC[C@]2(C)c3cc(OC(=O)CCCNCCCCNCCCNC(=O)Oc4ccc5c(c4)[C@@]4(C)CCC[C@](C)(C(=O)NCCCCC)[C@@H]4CC5)ccc3CC[C@@H]12.O=C(O)C(F)(F)F.O=C(O)C(F)(F)F    > 27.4 µM
C[C@]1(C(=O)NCCCNCCCCCCN)CCC[C@]2(C)c3cc(OC(=O)NCCCNCCCCCCN)ccc3CC[C@@H]12.O=C(O)C(F)(F)F.O=C(O)C(F)(F)F.O=C(O)C(F)(F)F.O=C(O)C(F)(F)F    > 29.5 µM
C[C@H]1c2cccc(O)c2C(=O)C2=C(O)[C@]3(O)C(=O)C(C(N)=O)=C(O)[C@@H](N(C)C)[C@@H]3[C@@H](O)[C@@H]21    90 µM

Lookup result for CCCCCNC(=O)[C@@]1(C)CCC[C@]2(C)c3cc(OC(=O)CCCNCCCCCCNCCCNC(=O)Oc4ccc5c(c4)[C@@]4(C)CCC[C@](C)(C(=O)NCCCCC)[C@@H]4CC5)ccc3CC[C@@H]12.O=C(O)C(F)(F)F.O=C(O)C(F)(F)F ; measured MIC: > 26.7 µM

Lookup result for C[C@]1(C(=O)O)CCC[C@]2(C)c3cc(OC(=O)CCCNCCCCCCCCCCCCNCCCNC(=O)Oc4ccc5c(c4)[C@@]4(C)CCC[C@](C)(C(=O)O)[C@@H]4CC5)ccc3CC[C@@H]12.O=C(O)C(F)(F)F.O=C(O)C(F)(F)F ; measured MIC: > 28 µM

Lookup result for C[C@]1(C(=O)NCCCNCCCCCCNCCCNC(=O)[C@@]2(C)CCC[C@]3(C)c4cc(O)ccc4CC[C@@H]23)CCC[C@]2(C)c3cc(O)ccc3CC[C@@H]12.O=C(O)C(F)(F)F.O=C(O)C(F)(F)F ; measured MIC: > 32.9 µM

Lookup result for COC(=O)[C@@]1(C)CCC[C@]2(C)c3cc(OC(=O)CCCNCCCCNCCCNC(=O)Oc4ccc5c(c4)[C@@]4(C)CCC[C@](C)(C(=O)OC)[C@@H]4CC5)ccc3CC[C@@H]12.O=C(O)C(F)(F)F.O=C(O)C(F)(F)F ; measured MIC: > 30.2 µM

Lookup result for C[C@]1(C(=O)NCCCNCCCCCCN)CCC[C@]2(C)c3cc(O)ccc3CC[C@@H]12.O=C(O)C(F)(F)F.O=C(O)C(F)(F)F ; measured MIC: > 48.6 µM

----------
system: Staphylococcus aureus; test: Antibacterial activity against methicillin-resistant Staphylococcus aureus ATCC 43300 assessed as inhibition of bacterial growth measured after 18 hrs by resazurin dye based analysis; format: functional
List of MIC values.

Lookup result for C[C@]1(C(=O)O)CCC[C@]2(C)c3cc(OC(=O)NCCCNCCCCCCCCN)ccc3CC[C@@H]12.O=C(O)C(F)(F)F.O=C(O)C(F)(F)F ; measured MIC: > 43.8 µM

Lookup result for C[C@]1(C(=O)NCCCNCCCCCCCN)CCC[C@]2(C)c3cc(OC(=O)NCCCNCCCCCCCN)ccc3CC[C@@H]12.O=C(O)C(F)(F)F.O=C(O)C(F)(F)F.O=C(O)C(F)(F)F.O=C(O)C(F)(F)F ; measured MIC: > 28.7 µM

Lookup result for C[C@]1(C(=O)O)CCC[C@]2(C)c3cc(OC(=O)CCCNCCCCCCCCCCCCNCCCNC(=O)Oc4ccc5c(c4)[C@@]4(C)CCC[C@](C)(C(=O)O)[C@@H]4CC5)ccc3CC[C@@H]12.O=C(O)C(F)(F)F.O=C(O)C(F)(F)F ; measured MIC: 14 µM

Lookup result for COC(=O)[C@@]1(C)CCC[C@]2(C)c3cc(OC(=O)CCCNCCCCCCCCNCCCNC(=O)Oc4ccc5c(c4)[C@@]4(C)CCC[C@](C)(C(=O)OC)[C@@H]4CC5)ccc3CC[C@@H]12.O=C(O)C(F)(F)F.O=C(O)C(F)(F)F ; measured MIC: ≤ 0.22 µM

Lookup result for C[C@]1(C(=O)NCCCNCCCCNCCCNC(=O)[C@@]2(C)CCC[C@]3(C)c4cc(O)ccc4CC[C@@H]23)CCC[C@]2(C)c3cc(O)ccc3CC[C@@H]12.O=C(O)C(F)(F)F.O=C(O)C(F)(F)F ; measured MIC: ≤ 0.26 µM

Lookup result for C[C@]1(C(=O)NCCCNCCCCCCCCCCCCN)CCC[C@]2(C)c3cc(O)ccc3CC[C@@H]12.O=C(O)C(F)(F)F.O=C(O)C(F)(F)F ; measured MIC: 5.4 µM

Lookup result for COC(=O)[C@@]1(C)CCC[C@]2(C)c3cc(OC(=O)CCCNCCCCNCCCNC(=O)Oc4ccc5c(c4)[C@@]4(C)CCC[C@](C)(C(=O)OC)[C@@H]4CC5)ccc3CC[C@@H]12.O=C(O)C(F)(F)F.O=C(O)C(F)(F)F ; measured MIC: 1.89 µM

Lookup result for CCCCCNC(=O)[C@@]1(C)CCC[C@]2(C)c3cc(OC(=O)CCCNCCCCNCCCNC(=O)Oc4ccc5c(c4)[C@@]4(C)CCC[C@](C)(C(=O)NCCCCC)[C@@H]4CC5)ccc3CC[C@@H]12.O=C(O)C(F)(F)F.O=C(O)C(F)(F)F ; measured MIC: ≤ 0.21 µM

Lookup result for C[C@]1(C(=O)NCCCNCCCCCCN)CCC[C@]2(C)c3cc(OC(=O)NCCCNCCCCCCN)ccc3CC[C@@H]12.O=C(O)C(F)(F)F.O=C(O)C(F)(F)F.O=C(O)C(F)(F)F.O=C(O)C(F)(F)F ; measured MIC: > 29.5 µM

Lookup result for C[C@@]12CCC[C@](C)(C(=O)O)[C@H]1CCc1ccc(OC(=O)CCCNCCCCCCNCCCNC(=O)Oc3ccc4c(c3)[C@@]3(C)CCC[C@](C)(C(=O)O)[C@@H]3CC4)cc12.O=C(O)C(F)(F)F.O=C(O)C(F)(F)F ; measured MIC: 30.2 µM
